biological target: PARG (389-976) (Homo sapiens (Human)); test: PARG enzyme inhibition assay (TR-FRET); assay type: biochemical; conditions: class symbol; Bio PARylated His-TEV-PARP1 substrate, TR-FRET
Sequence (Q86W56 389-976): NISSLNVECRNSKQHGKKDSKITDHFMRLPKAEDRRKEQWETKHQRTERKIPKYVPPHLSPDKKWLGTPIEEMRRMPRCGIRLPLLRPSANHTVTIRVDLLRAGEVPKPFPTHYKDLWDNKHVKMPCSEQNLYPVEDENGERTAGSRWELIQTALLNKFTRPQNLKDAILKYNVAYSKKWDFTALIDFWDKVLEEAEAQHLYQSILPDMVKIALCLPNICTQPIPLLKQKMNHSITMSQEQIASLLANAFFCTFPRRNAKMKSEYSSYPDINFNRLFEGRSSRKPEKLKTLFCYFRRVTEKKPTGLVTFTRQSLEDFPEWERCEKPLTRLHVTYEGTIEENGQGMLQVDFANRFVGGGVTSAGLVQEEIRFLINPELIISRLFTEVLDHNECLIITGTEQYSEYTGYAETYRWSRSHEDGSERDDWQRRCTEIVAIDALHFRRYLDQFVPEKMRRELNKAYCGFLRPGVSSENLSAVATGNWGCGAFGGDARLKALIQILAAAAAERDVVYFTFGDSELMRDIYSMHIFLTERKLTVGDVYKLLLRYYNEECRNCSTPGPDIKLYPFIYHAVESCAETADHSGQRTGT
pIC50: −log10 of the molar value.
ASSAY_METRIC: pIC50

Example cases with answers are listed next.
CC(C)S(=O)(=O)N1CC=C(c2cc(S(=O)(=O)NC3(C#N)CC3)cc3c(-c4nnc(C(F)(F)F)s4)nn(C)c23)CC1 [Compound 15]	> 9.00
CC(C)S(=O)(=O)N1CC=C(c2cc(S(=O)(=O)NC3(C#N)CC3)cc3c(-c4ccc(C(F)F)nn4)nn(C)c23)CC1 [Compound 78]	8.00 to 9.00
CC(C)S(=O)(=O)c1ncc(-c2cc(S(=O)(=O)NC3(C#N)CC3)cc3c(-c4nnc(C(F)F)s4)nn(C)c23)cn1 [Compound 43]	6.00 to 7.00
CN(C)S(=O)(=O)N1CCN(c2cc(S(=O)(=O)NC3(C#N)CC3)cc3c(-c4nnc(C(F)F)s4)nn(C)c23)CC1 [Compound 3]	8.00 to 9.00
CC(C)S(=O)(=O)N1CC=C(c2cc(S(=O)(=O)NC3(C#N)CC3)cc3c(-c4nnc(C(F)(F)F)s4)nn(CC4CNC4)c23)CC1 [Compound 61]	> 9.00
CC(C)S(=O)(=O)N1CCC(c2cc(S(=O)(=O)NC3(C#N)CC3)cc3c(-c4nnc(C(F)F)s4)nn(C)c23)=C(CN(C)C)C1 [Compound 71]	> 9.00

Sample Cn1nc(-c2nnc(C(F)F)s2)c2cc(S(=O)(=O)NC3(C#N)CC3)cc(C3=CCN(S(=O)(=O)C4(C)CC4)CC3)c21 [Compound 14] , system: PARG (389-976) (Homo sapiens (Human)). Its pIC50 is > 9.00

Sample CC(C)S(=O)(=O)N1CCC(c2cc(S(=O)(=O)NC3(C#N)CC3)cc3c(-c4nnc(C(F)(F)F)s4)nn(C)c23)=C(C(=O)O)C1 [Compound 54] , system: PARG (389-976) (Homo sapiens (Human)). Its pIC50 is 7.00 to 8.00

Sample CC(C)S(=O)(=O)N1CCN(c2cc(S(=O)(=O)NC3(C#N)CC3)cc3c(-c4nnc(C(F)(F)F)s4)nn(C)c23)CC1 [Compound 35] , system: PARG (389-976) (Homo sapiens (Human)). Its pIC50 is > 9.00

Sample CC(C)S(=O)(=O)N1CC=C(c2cc(S(=O)(=O)NC3(C#N)CC3)cc3c(-c4cc(C(F)(F)F)nn4C)nn(C)c23)CC1 [Compound 81] , system: PARG (389-976) (Homo sapiens (Human)). Its pIC50 is 6.00 to 7.00

Sample CC1=C(c2cc(S(=O)(=O)NC3(C#N)CC3)cc3c(-c4nnc(C(F)(F)F)s4)nn(C)c23)CCN(S(=O)(=O)C(C)C)C1 [Compound 75] , system: PARG (389-976) (Homo sapiens (Human)). Its pIC50 is > 9.00

Sample CC(C)S(=O)(=O)N1CC=C(c2cc(S(=O)(=O)NC3(C#N)CC3)cc3c(-c4nnc(C(F)F)s4)csc23)CC1 [Compound 10] , system: PARG (389-976) (Homo sapiens (Human)). Its pIC50 is 8.00 to 9.00

Sample CC(C)S(=O)(=O)N1CC=C(c2cc(S(=O)(=O)NC3(C#N)CC3)cc3c(-c4nnc(C(F)F)o4)nn(C)c23)CC1 [Compound 6] , system: PARG (389-976) (Homo sapiens (Human)). Its pIC50 is > 9.00
